Molecular target: T1, Human IL-7R-hFc antigen (R&D systems) (human, UniProt P16871 21-239)
T1 construct: Bought from R&D Systems; not shown: human Fc (hFc) of the bought fusion
T1 sequence (looked up): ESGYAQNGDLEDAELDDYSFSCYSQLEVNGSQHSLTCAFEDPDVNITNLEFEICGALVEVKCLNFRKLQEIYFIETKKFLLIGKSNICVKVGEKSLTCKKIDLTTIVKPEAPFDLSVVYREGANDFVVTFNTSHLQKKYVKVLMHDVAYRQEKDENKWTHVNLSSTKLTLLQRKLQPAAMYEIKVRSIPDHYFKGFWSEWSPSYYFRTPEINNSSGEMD
Experiment: SPR (Biacore 2000/3000), IL-7R-hFc captured on anti-human Fc, antibody as analyte
Each entry below carries its recorded pKd.
Keep in mind that pKd stands for -log10 of concentration in molar terms.

Q: Fill in: pKd of HAL403b Fab (Fab, V domains shown) VH: QVNLRESGGGLVKPGGSLRLSCAASGFTFDDSVMHWVRQAPGKGLEWLSLVGWDGFFTYYADSVKGRFTISRDNTKNLLYLQMNSLRAEDTAVYYCARQGDYMGNNWGQGTLVTVSS VL: NFMLTQPHSVSGSPGKTVTISCTRSSGSIDSSYVQWYQQRPGNSPTTVIYEDDQRPSGVPDRFSGSIDSSSNSASLTISGLVTEDEADYYCMQYDFHHLVFGGGTKLTVLC is ___
Result: 10.22

Q: Fill in: pKd of HAL403a Fab (Fab, V domains shown) VH: QVNLRESGGGLVKPGGSLRLSCAASGFTFDDSVMHWVRQAPGKGLEWLSLVGWDGFFTYYADSVKGRFTISRDNTKNLLYLQMNSLRAEDTAVYYCARQGDYMGNNWGQGTLVTVSS VL: NFMLTQPHSVSGSPGKTVTISCTRSSGSIDSSYVQWYQQRPGNSPTTVIYEDDQRPSGVPDRFSGSIDSSSNSASLTISGLVTEDEADYYCQSYDFHHLVFGGGTKLTVLC is ___
Result: 10.22

Q: Fill in: pKd of C1GM Fab (Fab, V domains shown) VH: EVQLVESGGGLVKPGGSLRLSCAASGFTFDDSVMHWVRQAPGKGLEWVSLVGWDGFFTYYADSVKGRFTISRDNAKNSLYLQMNSLRAEDTAVYYCARQGDYMGNNWGQGTLVTVSS VL: NFMLTQPHSVSESPGKTVTISCTRSSGSIDSSYVQWYQQRPGSSPTTVIYEDDQRPSGVPDRFSGSIDSSSNSASLTISGLKTEDEADYYCQSYDFHHLVFGGGTKLTVL is ___
Result: 10.40

Q: Fill in: pKd of C2M3 (hIgG1) (antibody, V domains shown, Only variable domains are tied to C2M3) VH: EVQLVESGGGLVKPGGSLRLSCAASGFTFDDSVMHWVRQAPGKGLEWVSLVGWDGFFTYYADSVKGRFTISRDNAKNSLYLQMNSLRAEDTAVYYCARQGDYMGNNWGQGTLVTVSS VL: NFMLTQPHSVSESPGKTVTISCTRSSGSIDSSYVQWYQQRPGSSPTTVIYEDDQRPSGVPDRFSGSIDSSSNSASLTISGLKTEDEADYYCMQYDFHHLVFGGGTKLTVL is ___
Result: 9.66

// provenance: patent US20180327503A1
